Assay: Pharmacokinetics after a single gavage administration
Assay type: in vivo
Conditions: male, rat, po; SD rats, single gavage 1.2 mg/kg, plasma, DAS 2.0; mean ± SD, n = 6; read-out: CLz/F (converted)
Residues, ends and D or L forms follow the SMILES beside them.
READOUT: CL/F (mL/min/kg)
Response body: numeric value in mL/min/kg, unit text excluded.

// sample CC(C)C[C@H](NC(=O)CNC(=O)[C@@H](N)Cc1ccc(O)cc1)C(=O)N[C@@H](Cc1ccccc1)C(=O)O [YF4, Tyr-Gly-Leu-Phe] (H-YGLF-OH) , its CL/F was 0.333

====

Test: Pharmacokinetics after a single gavage administration
Type: in vivo
Conditions: male, rat, po; SD rats, single gavage 1.2 mg/kg, plasma, DAS 2.0; mean ± SD, n = 6
Residues, ends and D or L forms follow the SMILES beside them.
READOUT: AUC(0-inf) (ng·h/mL)
Just the number in ng·h/mL, nothing appended.

# AUC(0-inf) (compound: CC(C)C[C@H](NC(=O)CNC(=O)[C@@H](N)Cc1ccc(O)cc1)C(=O)N[C@@H](Cc1ccccc1)C(=O)O [YF4, Tyr-Gly-Leu-Phe] (H-YGLF-OH) ) is 45400

====

Assay: Pharmacokinetics after a single gavage administration
Assay type: in vivo
Settings: male, rat, po; SD rats, single gavage 1.2 mg/kg, plasma, DAS 2.0; mean ± SD, n = 6; read-out: T1/2z (half-life) (converted)
Residues, ends and D or L forms follow the SMILES beside them.
READOUT: half-life (h)
Give just the number in h; leave the unit off.

// field: half-life; key: CC(C)C[C@H](NC(=O)CNC(=O)[C@@H](N)Cc1ccc(O)cc1)C(=O)N[C@@H](Cc1ccccc1)C(=O)O [YF4, Tyr-Gly-Leu-Phe] (H-YGLF-OH) ; value = 2.91

Entry source: paper PMC6401629
